# PROTOCOL: Ratio of drug level in brain to plasma in Wistar rat at 100 mg/kg, po after 30 mins by UPLC-MS/MS analysis
# Type: ADME, organism-based
# EXPERIMENTAL_SETUP: read-out: BPR

# SMILES_CODE, Kp at 0.5 h
records = [
    ("C/C1=C\\CC[C@@]2(C)O[C@H]2[C@H]2OC(=O)[C@@H](CN(C)C)[C@@H]2CC1", 1.84),
]

---

# PROTOCOL: Drug uptake in CD1 mouse plasma at 100 mg/kg, po after 4 hrs by LC-MS/MS analysis
# Format: ADME, organism-based

# SMILES_CODE, concentration at 4 h (ng/mL)
measured = [
    ("C/C1=C\\CC[C@@]2(C)O[C@H]2[C@H]2OC(=O)[C@@H](CN(C)C)[C@@H]2CC1", 115),
]

---

# System: U-87 MG
# PROTOCOL: Cytotoxicity against human U87MG cells assessed as cell viability after 48 hrs by Alamar Blue assay
# Format: functional, cell-based, U-87MG ATCC
VALUE_TYPE: IC50 (µM)

# COMPOUND, TEST_VALUE
data = [
    ("C=C1C(=O)O[C@@H]2C3O[C@]3(C)CC/C=C(\\C)CC[C@@H]12 (some centres not stated)", 8.8),
    ("C/C1=C\\CC[C@@]2(C)O[C@H]2[C@H]2OC(=O)[C@@H](CN(C)C)[C@@H]2CC1", 8.8),
]

---

# PROTOCOL: Half life in mouse serum
# Type: ADME, cell-free

# SMILES_CODE, half-life
measured = [
    ("C/C1=C\\CC[C@@]2(C)O[C@H]2[C@H]2OC(=O)[C@@H](CN(C)C)[C@@H]2CC1", "37.8 min"),
]

---

# PROTOCOL: Ratio of drug level in brain to plasma in CD1 mouse at 100 mg/kg, po after 4 hrs by LC-MS/MS analysis
# Assay type: ADME, organism-based
# EXPERIMENTAL_SETUP: read-out: BPR
VALUE_TYPE: Kp at 4 h

# SMILES_CODE, VALUE_TYPE, TEST_VALUE
records = [
    ("C/C1=C\\CC[C@@]2(C)O[C@H]2[C@H]2OC(=O)[C@@H](CN(C)C)[C@@H]2CC1", "Kp at 4 h", 3),
]
